The measurements presented in this section are drawn from patent US10342866B2.

# experimentalSystem: αLβ2 (LFA-1) (Homo sapiens, UniProt P05107+P20701)
# Construct: the cells expressed the appropriate integrin receptor either endogenously (Jurkat/α4β1, K562/α5β1, Jurkat (a4-)/αLβ2, HSB/αLβ2); endogenous in cells
# Sequence (P20701 26-1170): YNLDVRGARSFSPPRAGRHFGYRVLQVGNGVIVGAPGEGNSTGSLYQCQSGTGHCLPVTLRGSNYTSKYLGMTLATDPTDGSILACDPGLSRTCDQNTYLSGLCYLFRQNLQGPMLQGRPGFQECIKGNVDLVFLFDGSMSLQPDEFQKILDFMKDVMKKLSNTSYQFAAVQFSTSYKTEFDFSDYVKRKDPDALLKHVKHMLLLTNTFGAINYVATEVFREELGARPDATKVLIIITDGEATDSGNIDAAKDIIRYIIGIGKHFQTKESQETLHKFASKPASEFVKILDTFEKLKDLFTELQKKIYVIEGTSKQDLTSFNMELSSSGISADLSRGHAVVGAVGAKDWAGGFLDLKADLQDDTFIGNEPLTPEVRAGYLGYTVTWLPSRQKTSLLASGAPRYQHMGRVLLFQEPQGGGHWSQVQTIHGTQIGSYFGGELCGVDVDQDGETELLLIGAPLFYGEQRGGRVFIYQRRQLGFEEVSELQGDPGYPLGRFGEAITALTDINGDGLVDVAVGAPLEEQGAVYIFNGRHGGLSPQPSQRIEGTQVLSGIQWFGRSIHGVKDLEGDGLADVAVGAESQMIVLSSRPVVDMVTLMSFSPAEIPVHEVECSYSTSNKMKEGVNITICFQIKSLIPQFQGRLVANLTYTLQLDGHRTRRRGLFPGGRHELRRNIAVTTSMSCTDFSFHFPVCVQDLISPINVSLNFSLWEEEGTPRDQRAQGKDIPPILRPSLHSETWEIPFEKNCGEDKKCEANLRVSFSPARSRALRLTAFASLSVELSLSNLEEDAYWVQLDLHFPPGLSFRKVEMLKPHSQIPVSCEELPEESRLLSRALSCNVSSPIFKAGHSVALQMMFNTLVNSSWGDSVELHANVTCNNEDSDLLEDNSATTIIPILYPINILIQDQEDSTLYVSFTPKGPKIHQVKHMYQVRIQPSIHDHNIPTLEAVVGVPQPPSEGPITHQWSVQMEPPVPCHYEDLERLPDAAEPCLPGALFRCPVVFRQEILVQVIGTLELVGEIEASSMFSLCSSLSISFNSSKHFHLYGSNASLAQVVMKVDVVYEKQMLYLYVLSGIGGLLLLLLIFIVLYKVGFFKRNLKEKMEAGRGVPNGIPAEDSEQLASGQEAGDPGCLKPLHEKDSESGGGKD
# Sequence (P05107 23-769): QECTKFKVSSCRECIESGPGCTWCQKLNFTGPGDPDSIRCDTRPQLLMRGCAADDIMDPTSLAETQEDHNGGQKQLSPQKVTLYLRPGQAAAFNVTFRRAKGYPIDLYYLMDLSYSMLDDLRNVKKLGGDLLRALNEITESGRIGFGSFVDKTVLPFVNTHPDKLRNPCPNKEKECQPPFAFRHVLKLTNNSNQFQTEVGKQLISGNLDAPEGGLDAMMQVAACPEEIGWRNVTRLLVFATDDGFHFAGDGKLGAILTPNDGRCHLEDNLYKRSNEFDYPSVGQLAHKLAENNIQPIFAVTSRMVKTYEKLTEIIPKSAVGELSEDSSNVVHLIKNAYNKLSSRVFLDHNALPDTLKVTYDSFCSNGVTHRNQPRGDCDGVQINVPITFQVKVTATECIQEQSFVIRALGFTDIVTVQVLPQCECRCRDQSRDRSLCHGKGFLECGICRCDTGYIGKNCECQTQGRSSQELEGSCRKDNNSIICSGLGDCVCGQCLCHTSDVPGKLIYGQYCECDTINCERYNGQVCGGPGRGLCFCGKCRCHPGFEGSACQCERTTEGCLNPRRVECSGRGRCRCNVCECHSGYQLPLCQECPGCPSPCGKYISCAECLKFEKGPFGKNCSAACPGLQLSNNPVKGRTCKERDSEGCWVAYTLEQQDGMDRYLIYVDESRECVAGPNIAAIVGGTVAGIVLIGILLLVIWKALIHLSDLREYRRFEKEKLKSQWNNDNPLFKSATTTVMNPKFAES
# assayOverview: Static cell adhesion assay, αLβ2-mediated adhesion to ICAM-1
# measurementConditions: Jurkat (a4-) or HSB cells on sub-optimal ICAM-1 coating; PBS, 1 mM MgCl2, 50% FBS; read-out: Activity (EC50) in enhancing adhesion mediated by αLβ2 (LFA-1)
readout: pEC50
Units for pEC50: none; it is -log10 of a concentration expressed in mol/L.

Solved entries (count: 3):
INSERT INTO measurements (moleculesmiles, experimentalsystem, reported) VALUES
  ('COc1ccc(CN(Cc2ccc(OC)cc2)C(=O)CCCCC(=O)N(Cc2ccc(OC)cc2)Cc2ccc(OC)cc2)cc1', 'αLβ2 (LFA-1) (Homo sapiens, UniProt P05107+P20701)', 4.96),
  ('CCCC[C@@H](COC(=O)N(Cc1cccs1)Cc1cccs1)NC(=O)N[C@@H](CC(=O)OC)c1ccc2c(c1)OCO2', 'αLβ2 (LFA-1) (Homo sapiens, UniProt P05107+P20701)', 4.59),
  ('O=C(OCCOCCOCCOC(=O)N(Cc1cccs1)Cc1cccs1)N(Cc1cccs1)Cc1cccs1', 'αLβ2 (LFA-1) (Homo sapiens, UniProt P05107+P20701)', 4.96);

# context switch: different compound, same pEC50
Ask: Please give the measured pEC50 for this compound: COc1cccc(CN(Cc2cccc(OC)c2)C(=O)CCCCC(=O)N(Cc2cccc(OC)c2)Cc2cccc(OC)c2)c1
Reply: 5.15
